# TARGET: ZafA (Aspergillus fumigatus (FGSC A1163 akuB(KU80)-delta pyrG1 is the study strain; cDNA source 'fungal cDNA'))
# Sequence: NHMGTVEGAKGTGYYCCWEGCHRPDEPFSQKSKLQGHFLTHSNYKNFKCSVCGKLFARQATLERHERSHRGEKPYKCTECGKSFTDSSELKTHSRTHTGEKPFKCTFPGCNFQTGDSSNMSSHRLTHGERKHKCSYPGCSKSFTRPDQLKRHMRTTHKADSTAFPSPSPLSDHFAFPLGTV
# EXPERIMENT NOTES: EMSA
# EXPERIMENTAL PARAMETERS: 10 mM Tris-HCl pH 8.0, 50 mM NaCl, 1 mM MgCl2, 500 uM EDTA, 500 uM DTT, 4% glycerol; 500 ng ZafA, 5 ng probe; 30 min at 25 C; Zn/Cu added 10 min after start of …
TEST READOUT: binding

[[record]]
sequence_input = "CTCAAAGCTCGCTCATCGGATTTTTGATTATCAGTTTTGCGAGACCAAGCATGATAGTGACAGAGCATTCAAGGTGAGAATGTGAAGAATGCGTGGCGGCGTAGCATTCTTACT (double strand) [CtrA2 promoter EMSA probe, 114 bp]"
result = "no binding"

[[record]]
sequence_input = "TACCAGGGCCCCTTTCCCTCAAGTTGCTCGCACAGATCTGGATGTTACTTTCATCGAATATATACACGTGGGAAGCTCCCAAGGTCCTCTTGGAT (double strand) [ZafA promoter EMSA probe, 95 bp]"
result = "binds"

[[record]]
sequence_input = "TGCCGCCATTGTTCAGCAGTGCGGTGCTGTCAAGGTCAAGGTCAAGGACGGCCTTCTCCAAGGATGTCACATACAAAGGGAATAGACTGAATAAATCATTTCCTCGGCAACGATCCGA (double strand) [CtrA1 promoter EMSA probe, 118 bp]"
result = "no binding"

[[record]]
sequence_input = "AAGGGCCCAGGGCCTGTCTTGTTGTACGACTTCACTTTCTCCCAGGGTGCCACTGCTTGCTATCTCTATGTAGATAACCGCTGTCTTTCCTCTTTTTTTGACCCTTTCTTCTATTGCTCTGGTCTGCT (double strand) [CtrC promoter EMSA probe, 128 bp]"
result = "binds"

